B1: Pistol ribozyme (parent)
chain: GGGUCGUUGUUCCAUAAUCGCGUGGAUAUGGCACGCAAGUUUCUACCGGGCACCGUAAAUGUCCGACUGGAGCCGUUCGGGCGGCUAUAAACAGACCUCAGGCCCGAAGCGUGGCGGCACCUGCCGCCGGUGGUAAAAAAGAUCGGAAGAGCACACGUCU

- Variants of: B1
- assayProtocol: aptazyme ON/OFF ratio, guanine; higher = stronger switching; co-transcriptional cleavage with and without guanine
observationType: aptazyme ON/OFF ratio
Quick one: just the number, no unit, thanks!

Field: example entries. Status: answers known.
U7G G9C U10A U11C C12A C13A: 1.34
U8G G9U U10A U11C C12A C13A: 1.1
U7C U8A U10A U11C C12U C13A: 1.08
U7A U10C U11A C13U: 1.16
U7G G9C U10G U11C C12U C13U: 1.19

Q: GET /values?readout=aptazyme ON/OFF ratio&item= U7C U8G G9U U10C U11A C12A C13U
Result: 1.24

Q: Repeat with U7C U8G U10C U11A C13A
Result: 1.32

Q: And the next one, U7C U8C G9C U10C U11C C12U C13U ?
Result: 1.03

Q: What about this variant? U7A U8C G9C U10G C12A C13U
Result: 1.07

Q: Try the variant U7C U8G G9C C13U
Result: 1.04

Q: One more variant: U8A G9U U10C U11C C12G C13A
Result: 1.07

Q: Can you handle U7G U8C G9U U10A U11C C13A next?
Result: 1.42

Q: Cool, now U7C U8G G9C U11C C12U C13U
Result: 1.07

Q: Try U7C U8C G9A U10C U11G C12U next.
Result: 1.21

Q: Okay, and U7A U8A G9U U10A U11C C12U ?
Result: 1.1

Q: G9A U11G C12A ?
Result: 1.1

Q: One more variant: U7C U8G U10A C12G C13A
Result: 1.13

Q: Same lookup for U7G U8G G9A U10G C12U , please.
Result: 1.29

Q: Try this variant too: U7G G9U U11C C12U C13U
Result: 1.31

Q: Please give the result for U8G G9A U11C C12A C13U too.
Result: 1.3

Q: Would you kindly repeat that for U7A U8A U10G U11G C12A C13G ?
Result: 1.16

Q: Moving on to U8C U10G U11C C12G C13A
Result: 1.18

Q: Thanks! And U7G U8G U10G U11A C12G ?
Result: 1.43
